# targetOrSystem: ADRβ2 (Homo sapiens, UniProt P07550)
# Sequence (P07550 whole entry): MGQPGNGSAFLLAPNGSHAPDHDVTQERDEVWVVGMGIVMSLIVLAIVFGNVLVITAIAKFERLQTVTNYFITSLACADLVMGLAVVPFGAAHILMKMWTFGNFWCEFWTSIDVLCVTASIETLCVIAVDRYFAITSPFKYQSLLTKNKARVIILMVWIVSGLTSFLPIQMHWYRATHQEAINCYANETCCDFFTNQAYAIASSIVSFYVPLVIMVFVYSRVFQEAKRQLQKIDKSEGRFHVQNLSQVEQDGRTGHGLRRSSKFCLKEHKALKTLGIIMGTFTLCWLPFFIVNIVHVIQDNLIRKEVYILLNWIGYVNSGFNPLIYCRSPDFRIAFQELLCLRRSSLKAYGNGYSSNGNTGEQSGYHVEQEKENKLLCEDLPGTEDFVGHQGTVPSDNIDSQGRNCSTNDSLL
Structures can show the parent of a compound that is named as a salt.
quantity: pIC50
Numbers only, as −log10 of the molar value.

Give the measured pIC50 of CCOc1ccccc1OCC1CNCCO1 (stereo not shown) [Viloxazine, Viloxazine hydrochloride] .
4.17

Reference for the values: paper PMC7473988
